# Test description: Single dose oral PK study in male Sprague Dawley rats (plasma by LC-MS/MS)
# Assay type: in vivo
# Run parameters: male, Sprague Dawley, rat, in vivo, po, 5 mg/kg, PRX-P5-006 oral 5 mg/kg, mean; read-out: T1/2 of PRX-P5-006 (converted)
Test readout: half-life (h)
Answers are plain numbers, in h.

Qu. Return value of half-life for input CCCCCCCCCCCCCCCCCC(=O)OC(C)OC(=O)N(CC)C1C2CCC(C2)C1c1ccccc1 (single isomer, unassigned) , no commentary.
Ans. 2.91

----------
# Test description: Single dose oral PK study in male Sprague Dawley rats (plasma by LC-MS/MS)
# Format: in vivo
# Run parameters: male, Sprague-Dawley, rat, in vivo, po, 5 mg/kg, PRX-P6-011 oral 5 mg/kg, mean; read-out: Cmax of PRX-P6-011
# Experimental: We describe here PK results of prodrugs of PRX-002 (−) or (+) isomers. All doses of prodrugs were administered such that they were equivalent to 5 mg/kg of PRX-002 (−) or (+) for oral studies and 2 mg/kg PRX-002 (−) or (+) for intravenous studies in male Sprague-Dawley (MSD) rats. Higher doses of up to 10 or 15 mg/kg [again equivalent to PRX-002 (−)] were used in some studies (as specified)]. Formulation preparation, dose administration and time of sample collection was as follows. […]
Test readout: Cmax

Qu. Using the record for CCN(C(=O)[C@@H](NC(=O)[C@@H](N)C(C)C)C(C)C)C1C2CCC(C2)C1c1ccccc1 (single isomer, unassigned) , state its measured Cmax.
Ans. 0.0822 µg/mL

----------
# Test description: Single dose oral PK study in male Sprague Dawley rats (plasma by LC-MS/MS)
# Assay type: in vivo
# Run parameters: male, Sprague Dawley, rat, in vivo; oral 15 mg/kg (footnote *), analyte: prodrug in plasma, mean; read-out: Oral PK Parameters AUC, Prodrug
# Method: We describe here PK results of prodrugs of PRX-002 (−) or (+) isomers. All doses of prodrugs were administered such that they were equivalent to 5 mg/kg of PRX-002 (−) or (+) for oral studies and 2 mg/kg PRX-002 (−) or (+) for intravenous studies in male Sprague-Dawley (MSD) rats. Higher doses of up to 10 or 15 mg/kg [again equivalent to PRX-002 (−)] were used in some studies (as specified)]. Formulation preparation, dose administration and time of sample collection was as follows. […]
Test readout: AUC (ng·h/mL)
Numbers only, in ng·h/mL.

Qu. Answer with the recorded AUC for the compound listed here: CCCCCCCCCCCCCCCCCC(=O)OC(C)OC(=O)N(CC)C1C2CCC(C2)C1c1ccccc1 (single isomer, unassigned) [PRX-P5-006]
Ans. 477

----------
# Test description: Single dose intravenous PK study in male Sprague Dawley rats (plasma by LC-MS/MS)
# Assay type: in vivo
# Run parameters: male, Sprague Dawley, rat, plasma, iv, 2 mg/kg, single IV dose 2 mg/kg b.w., mean plasma PK parameters (Table 39.27); read-out: Cmax
Test readout: Cmax (ng/mL)
Answers are plain numbers, in ng/mL.

Qu. State, in one line, measured Cmax of CCN[C@H]1[C@H]2CC[C@H](C2)[C@@H]1c1ccccc1 [PRX-002 (+) Isomer, reference compound]
Ans. 234

----------
# Test description: Single dose oral PK study in male Sprague Dawley rats (plasma by LC-MS/MS)
# Assay type: in vivo
# Run parameters: male, Sprague Dawley, rat, in vivo, po, 5 mg/kg, PRX-P5-006 oral 5 mg/kg, mean; read-out: AUCinf of PRX-P5-006
Test readout: AUC(0-inf) (ng·h/mL)
Numbers only, in ng·h/mL.

Qu. Identify measured AUC(0-inf) corresponding to CCCCCCCCCCCCCCCCCC(=O)OC(C)OC(=O)N(CC)C1C2CCC(C2)C1c1ccccc1 (single isomer, unassigned) [PRX-P5-006]
Ans. 115

Origin of values: patent US10662146B2
